target: UniProt:P47901; assay: Agonist activity at recombinant human vasopressin V1b receptor expressed in Flp-In-293 cells by luciferase reporter gene assay; type: functional, cell-based; settings: read-out: EC50
Sequence (P47901 whole entry): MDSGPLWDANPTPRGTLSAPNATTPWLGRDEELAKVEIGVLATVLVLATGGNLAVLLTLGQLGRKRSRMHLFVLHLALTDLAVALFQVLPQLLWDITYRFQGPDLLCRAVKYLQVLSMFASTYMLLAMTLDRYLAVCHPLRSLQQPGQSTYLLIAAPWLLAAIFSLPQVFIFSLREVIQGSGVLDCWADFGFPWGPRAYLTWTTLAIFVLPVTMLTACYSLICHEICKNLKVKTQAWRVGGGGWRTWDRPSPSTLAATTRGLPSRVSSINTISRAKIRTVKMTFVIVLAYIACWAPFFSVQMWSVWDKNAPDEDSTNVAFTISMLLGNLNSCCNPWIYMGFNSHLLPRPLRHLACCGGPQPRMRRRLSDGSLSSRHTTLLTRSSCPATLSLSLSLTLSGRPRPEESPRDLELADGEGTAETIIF
pEC50: −log10 of the molar value. Bridge positions count the residues as written; N and C are the ends. Square brackets hold non-standard residues; d marks the D form. Peptide text beside a SMILES is read from it. Ala(2-furyl) = N[C@@H](Cc1ccco1)C(=O)O; Orn(iPr) = CC(C)NCCC[C@H](N)C(=O)O; Dap = NC[C@H](N)C(=O)O
Listing of entries alongside the reported pEC50.
assay metric: pEC50

• CC[C@H](C)[C@@H]1NC(=O)[C@H](Cc2ccco2)NC(=O)[C@@H](N)CSSC[C@@H](C(=O)N2CCC[C@H]2C(=O)N[C@@H](CCCNC(C)C)C(=O)NCC(N)=O)NC(=O)[C@H](CC(N)=O)NC(=O)[C@H](CCC(N)=O)NC1=O (H-C[Ala(2-furyl)]IQNCP[Orn(iPr)]G-NH2; disulfide 1-6) = 6.24
• CC[C@H](C)[C@@H]1NC(=O)[C@H](Cc2ccccc2)NC(=O)[C@@H](N)CSSC[C@@H](C(=O)N2CCC[C@H]2C(=O)N[C@@H](CN)C(=O)NCC(N)=O)NC(=O)[C@H](CC(N)=O)NC(=O)[C@H](CCC(N)=O)NC1=O (H-CFIQNCP[Dap]G-NH2; disulfide 1-6) = 6.68
